target: Alkaline phosphatase, tissue-nonspecific isozyme (Homo sapiens, UniProt P05186); assay: potency against alkaline phosphatase TNAP – biochemical, luminescent, dose response, SAR follow-up (AID 1056)
Sequence (P05186 whole entry): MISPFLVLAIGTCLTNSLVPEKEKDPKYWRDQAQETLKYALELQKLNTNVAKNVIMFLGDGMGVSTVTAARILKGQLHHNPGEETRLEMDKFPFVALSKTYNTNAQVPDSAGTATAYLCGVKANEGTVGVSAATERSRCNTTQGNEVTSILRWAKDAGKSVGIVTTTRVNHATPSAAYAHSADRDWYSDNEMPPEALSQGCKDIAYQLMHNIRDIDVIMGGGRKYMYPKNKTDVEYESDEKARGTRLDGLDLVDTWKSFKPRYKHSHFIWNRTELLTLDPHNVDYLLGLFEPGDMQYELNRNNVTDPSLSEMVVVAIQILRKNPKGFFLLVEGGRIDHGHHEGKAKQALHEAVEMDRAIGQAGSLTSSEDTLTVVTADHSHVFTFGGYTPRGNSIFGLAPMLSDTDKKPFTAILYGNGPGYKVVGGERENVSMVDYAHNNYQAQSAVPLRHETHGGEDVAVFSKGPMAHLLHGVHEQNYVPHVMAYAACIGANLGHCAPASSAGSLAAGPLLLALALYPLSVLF
Active and inactive are the calls of the source. No stated cut-off is given here; in the data, actives have a measured IC50 and inactives only a lower limit.
Valid outcomes are listed here; reply with one: Y = active, N = inactive

smilesData: CCOc1ccc(C(C)(C)C)cc1S(=O)(=O)Nc1cccnc1
assignedLabel: Y

Query string: Field: outcome | Entry: `O=c1c2cc(F)ccc2sn1-c1ccc(F)cc1`
Result string: N

Query string: Field: outcome | Entry: `COc1ccc(S(=O)(=O)Nc2ccc3ccccc3c2)cc1OC`
Result string: N

Query string: Field: outcome | Entry: `Cc1cc2nc(C3CCN(Cc4nnnn4Cc4cccs4)CC3)[nH]c2cc1C`
Result string: Y
